Measured values drawn from paper PMC8954640 for this set.

Assay: Measurement of fluorescent properties in MeOH
Format: physicochemical
Settings: 300 μg/mL in MeOH; λexc = 365 nm; listed as 1
experimental_readout: λ em (nm)
Quick reminder: number only, in nm, skip the unit.

Entry CCCCCC1OC(OC)c2c3c(cc(O)c2C1OC)C=CC(C)(C)O3 (racemic) [(±)-1, (±)-Eurotiumide G] has what λ em?
445

----------
Assay: Measurement of fluorescent properties in MeOH
Format: physicochemical
Conditions: 300 μg/mL in MeOH; listed as 2
experimental_readout: λ abs

Entry CCCCCC1OC(OC)c2c3c(cc(O)c2C1OC)C=CC(C)(C)O3 (racemic) [(±)-2, (±)-Eurotiumide F] has what λ abs?
223 nm

----------
Overview of recorded Stokes Shift for various molecules
Experiment: Measurement of fluorescent properties in MeOH
Type: physicochemical
Settings: 300 μg/mL in MeOH; λexc = 365 nm
Quick reminder: number only, in nm, skip the unit.

Worked set:
molecule: CCCCCC1OC(OC)c2c3c(cc(O)c2C1OC)C=C(OC)C(C)(C)O3 (racemic) [(±)-3, (±)-Aspergiletal A]
endpoint_unit: nm
Stokes Shift: 266

molecule: CCCCCC1OC(OC)c2c3c(cc(O)c2C1OC)CC(OC)C(C)(C)O3 (racemic) [(±)-4, (±)-Aspergiletal B]
endpoint_unit: nm
Stokes Shift: 203

molecule: CCCCCC1OC(OC)c2c3c(cc(O)c2C1OC)C(O)C(O)C(C)(C)O3 (racemic) [(±)-6, (±)-Aspergiletal D]
endpoint_unit: nm
Stokes Shift: 199

// next item, Stokes Shift requested
Entry CCCCCC1OC(OC)c2c3c(cc(O)c2C1OC)CC(O)C(C)(C)O3 (racemic) [(±)-5, (±)-Aspergiletal C] has what Stokes Shift?
229
